- target-or-test-system: phosphorylated VEGF-R2Δ50 (FLVK-P) (Homo sapiens, UniProt P35968, DEL940-989/E990V)
- Construct: VEGF-R2Δ50 contains residues 806-939 and 990-1171; made in house; host or cells: baculovirus/insect cells
- Sequence (P35968 with tags, fused parts or gaps DEL940-989/E990V limits assumed): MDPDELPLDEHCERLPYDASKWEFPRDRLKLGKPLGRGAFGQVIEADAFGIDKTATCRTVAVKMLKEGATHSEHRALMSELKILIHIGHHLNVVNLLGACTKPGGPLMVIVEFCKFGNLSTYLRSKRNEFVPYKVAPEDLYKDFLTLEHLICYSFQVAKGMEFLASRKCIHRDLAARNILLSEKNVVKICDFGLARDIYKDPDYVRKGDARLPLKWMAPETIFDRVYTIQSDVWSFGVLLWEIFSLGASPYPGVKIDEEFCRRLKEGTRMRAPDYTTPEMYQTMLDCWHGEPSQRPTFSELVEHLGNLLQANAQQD
- test-protocol: VEGF-R2 coupled spectrophotometric (FLVK-P) assay
- Type: biochemical
- reported-conditions: Table 2; spectrophotometric assay
pKi: −log10 of the molar value.
measured-property: pKi

COc1cc(Nc2nc(N)c(C3=NC(c4cccc(O)c4)CO3)s2)cc(OC)c1OC (stereo not drawn) [I(9)] : 7.08
COc1cc(Nc2nc(N)c(C3=NC(c4ccccc4)CO3)s2)cc(OC)c1OC (stereo not drawn) [I(6)] : 7.00

====

- target-or-test-system: FL-CHK1 (Homo sapiens, UniProt O14757)
- Construct: C-terminally His-tagged full-length human CHK1 (FL-CHK1); 6xHis (C); made in house; host or cells: baculovirus/insect cells
- Sequence (O14757 1-476): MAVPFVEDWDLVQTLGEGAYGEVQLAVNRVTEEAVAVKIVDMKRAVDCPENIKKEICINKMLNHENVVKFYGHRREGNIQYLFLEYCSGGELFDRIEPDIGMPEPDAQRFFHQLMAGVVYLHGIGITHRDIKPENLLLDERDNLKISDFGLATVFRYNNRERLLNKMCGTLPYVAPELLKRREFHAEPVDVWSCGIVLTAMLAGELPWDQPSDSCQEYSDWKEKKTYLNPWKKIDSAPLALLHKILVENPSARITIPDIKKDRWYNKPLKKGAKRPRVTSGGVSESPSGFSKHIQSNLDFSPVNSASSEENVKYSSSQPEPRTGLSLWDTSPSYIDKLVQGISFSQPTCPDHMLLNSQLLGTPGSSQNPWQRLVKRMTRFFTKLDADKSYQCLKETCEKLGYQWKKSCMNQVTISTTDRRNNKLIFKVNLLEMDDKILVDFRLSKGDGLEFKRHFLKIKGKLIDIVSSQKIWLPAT
- test-protocol: CHK1 assay
- Type: biochemical
- reported-conditions: 20 μM; combinatorial library compounds
measured-property: inhibition at 20 µM (%)

The examples below pair each entry with its known result.
Cc1ccc(-c2csc(-c3sc(Nc4ccc(S(N)(=O)=O)cc4)nc3N)n2)c(C)c1 : 0.2
Nc1nc(Nc2ccc(S(N)(=O)=O)cc2)sc1-c1nc(-c2ccc(F)cc2F)cs1 [drawing 445] : 21.6

(P) Cc1onc(-c2ccccc2)c1-c1csc(-c2sc(Nc3ccc(C(C)C)cc3)nc2N)n1
(Q) CC(C)c1ccc(Nc2nc(N)c(-c3nc(-c4ccc(F)cc4)cs3)s2)cc1
Task: Hey, between P and Q which has a smaller measured inhibition at 20 µM? // output: label of the selected item
Output: P

====

- target-or-test-system: phosphorylated VEGF-R2Δ50 (FLVK-P) (Homo sapiens, UniProt P35968, DEL940-989/E990V)
- Construct: VEGF-R2Δ50 contains residues 806-939 and 990-1171; made in house; host or cells: baculovirus/insect cells
- test-protocol: VEGF-R2 coupled spectrophotometric (FLVK-P) assay
- Format: biochemical
- reported-conditions: read-out: VEGF % inhibition at 20 μM, 20 μM; combinatorial library compounds
measured-property: inhibition at 20 µM (%)

Check out these entries, answers already filled in.
CN(C)c1ccc(Nc2nc(N)c(-c3nc(-c4cc(C(C)(C)C)c(O)c(C(C)(C)C)c4)cs3)s2)cc1 : 6
Cc1c(-c2csc(-c3sc(Nc4ccc(S(N)(=O)=O)cc4)nc3N)n2)sc2ccccc12 : 3
CC(C)c1ccc(Nc2nc(N)c(-c3nc(-c4ccc(Cl)cc4)cs3)s2)cc1 : -2
CC(C)(C)c1cc(-c2csc(-c3sc(Nc4ccc(S(N)(=O)=O)cc4)nc3N)n2)cc(C(C)(C)C)c1O : -9
CN(C)c1ccc(Nc2nc(N)c(-c3nc(-c4ccc([N+](=O)[O-])cc4)cs3)s2)cc1 : 8

(1) CCOC(=O)c1ccccc1-c1csc(-c2sc(Nc3ccc(S(N)(=O)=O)cc3)nc2N)n1
(2) Nc1nc(Nc2ccc(S(N)(=O)=O)cc2)sc1-c1nc(-c2cc(-c3ccc(Cl)c(Cl)c3)no2)cs1
(3) CC(C)c1ccc(Nc2nc(N)c(-c3nc(-c4ccc5ccccc5c4)cs3)s2)cc1
Task: Falling order of inhibition at 20 µM, please. The labels, placed in the requested order, form the answer.
Output: 1, 3, 2
(1: 9%, 3: -2%, 2: -5%)

(a) COc1cccc(-c2csc(-c3sc(Nc4ccc(C(C)C)cc4)nc3N)n2)c1
(b) Nc1nc(Nc2ccc(S(N)(=O)=O)cc2)sc1-c1nc(-c2ccc3c(c2)CCC(=O)N3)cs1
Task: When their inhibition at 20 µM values are compared, which is larger, a or b ? // output: label of the selected item
Output: a

====

- target-or-test-system: unphosphorylated VEGF-R2Δ50 (FLVK) (Homo sapiens, UniProt P35968, DEL940-989/E990V)
- Construct: VEGF-R2Δ50 contains residues 806-939 and 990-1171; made in house; host or cells: baculovirus/insect cells
- test-protocol: VEGF-R2 coupled spectrophotometric assay, unphosphorylated enzyme (FLVK)
- Format: biochemical
- reported-conditions: Table 1
measured-property: Ki (nM)

COc1cc(Nc2nc(N)c(-c3nc(-c4cccc(NC(=O)c5cccc(Cl)c5)c4)cs3)s2)cc(OC)c1OC : 1.4

(I) CNC(=O)Nc1nc(N)c(-c2nc(-c3cccc(NC(=O)c4ccc(Cl)s4)c3)cs2)s1
(II) COc1cc(Nc2nc(N)c(-c3nc(-c4cccc(NC(=O)OCc5ccccc5)c4)no3)s2)cc(OC)c1OC
(III) CC(=O)Nc1nc(N)c(-c2nc(-c3cccc(NC(=O)c4ccc(Cl)s4)c3)cs2)s1
Task: Please produce an ascending ranking of these compounds based on Ki. The response must list the labels following the requested ordering.
Output: I, II, III
(I: 1.4 nM, II: 2.1 nM, III: 4.71 nM)

====

- target-or-test-system: CDK4/Cyclin D3 complex (Homo sapiens)
- Construct: made in house; host or cells: insect cells co-infected with baculovirus vectors
- Sequence (P11802 whole entry): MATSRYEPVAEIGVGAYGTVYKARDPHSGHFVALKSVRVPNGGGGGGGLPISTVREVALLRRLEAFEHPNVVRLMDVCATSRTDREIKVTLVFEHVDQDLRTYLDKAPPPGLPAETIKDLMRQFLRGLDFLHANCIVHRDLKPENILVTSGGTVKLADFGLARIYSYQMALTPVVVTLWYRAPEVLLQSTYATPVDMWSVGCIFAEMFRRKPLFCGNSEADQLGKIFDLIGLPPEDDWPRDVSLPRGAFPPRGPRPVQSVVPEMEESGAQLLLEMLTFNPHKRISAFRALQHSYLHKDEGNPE
- Sequence (P30281 whole entry partner): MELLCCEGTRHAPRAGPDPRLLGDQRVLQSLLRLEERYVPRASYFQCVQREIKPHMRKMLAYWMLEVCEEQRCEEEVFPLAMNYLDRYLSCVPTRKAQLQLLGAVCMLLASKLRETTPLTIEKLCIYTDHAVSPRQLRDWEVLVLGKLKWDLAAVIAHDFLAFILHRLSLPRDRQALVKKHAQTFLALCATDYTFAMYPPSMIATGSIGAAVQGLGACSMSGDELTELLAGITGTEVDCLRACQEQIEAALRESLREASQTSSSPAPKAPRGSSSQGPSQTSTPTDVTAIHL
- test-protocol: CDK4/Cyclin D assay
- Assay type: biochemical
- reported-conditions: Table 2
measured-property: Ki (µM)

Example compounds with recorded Ki:
Nc1nc(Nc2ccc(S(N)(=O)=O)cc2)sc1-c1nc(-c2cc(-c3ccc(Cl)cc3Cl)co2)cs1 [A(28)] : 24
Nc1cccc(-c2csc(-c3sc(Nc4ccc(S(N)(=O)=O)cc4)nc3N)n2)c1 [C(3)] : 4.6

(A) COc1cc(Nc2nc(N)c(-c3nc(-c4ccc(O)cc4)cs3)s2)cc(OC)c1OC [A(10)]
(B) Nc1nc(Nc2ccc(S(N)(=O)=O)cc2)sc1-c1nc(-c2cccc(C(=O)O)c2)cs1 [A(21)]
Task: Which value of Ki is greater, the one for A or the one for B ? Please identify the chosen entry by its label.
Output: B
(B: 45 µM, A: 9.1 µM)

====

- System: human umbilical vein endothelial cells (HUVEC)
- test-protocol: HUVEC proliferation assay
- Format: cell-based
- reported-conditions: Homo sapiens, HUVEC, Table 3
measured-property: IC50 (µM)
Response body: numeric value in µM, unit text excluded.

Worked examples, 3 molecules total:
COc1cccc(C(=O)Nc2ccc(F)c(-c3noc(-c4sc(Nc5cc(OC)c(OC)c(OC)c5)nc4N)n3)c2)c1 [D(72)] : 0.0047
COc1cc(Nc2nc(N)c(-c3nc(-c4cc(NC(=O)OC(C)(C)C)c(Cl)cc4Cl)no3)s2)cc(OC)c1OC [B(15)] : 0.1
COc1cc(Nc2nc(N)c(-c3nc(-c4cc(NC(=O)OC(C)(C)C)c(F)cc4Cl)no3)s2)cc(OC)c1OC [B(14)] : 0.011

Task: Fill in the blank: the reported IC50 of COc1cc(Nc2nc(N)c(-c3nc(-c4cc(NC(=O)OC(C)(C)C)ccc4Cl)no3)s2)cc(OC)c1OC [B(12)] is ____.
Output: 0.015

Task: Recorded IC50 of COc1cc(Nc2nc(N)c(-c3nc(-c4cccc(NC(=O)c5ncoc5-c5ccccc5)c4)cs3)s2)cc(OC)c1OC [D(61)] , please.
Output: 0.165

Task: Returns the measured IC50 for the input molecule. Input: COc1cc(Nc2nc(N)c(-c3nc(-c4cc(NC(=O)OC(C)(C)C)ccc4C)no3)s2)cc(OC)c1OC [B(6)]
Output: 0.056

====

- target-or-test-system: CDK4/Cyclin D3 complex (Homo sapiens)
- Construct: made in house; host or cells: insect cells co-infected with baculovirus vectors
- test-protocol: CDK4/Cyclin D assay
- Assay type: biochemical
- reported-conditions: 1.0 μM; combinatorial library compounds
measured-property: inhibition at 1 µM (%)

Some solved entries appear below for comparison.
Nc1nc(Nc2ccc(S(N)(=O)=O)cc2)sc1-c1nc(-c2ccc(C(F)(F)F)cc2)cs1 : -3.6
CN(C)c1ccc(Nc2nc(N)c(-c3nc(-c4cc(C(C)(C)C)c(O)c(C(C)(C)C)c4)cs3)s2)cc1 : 73.2
Cc1ccc(-c2csc(-c3sc(Nc4ccc(N(C)C)cc4)nc3N)n2)cc1 : 61.6

(A) CC(C)c1ccc(Nc2nc(N)c(-c3nc(-c4ccc(-c5ccc(Cl)cc5Cl)o4)cs3)s2)cc1
(B) CCc1cc2c(cc1-c1csc(-c3sc(Nc4ccc(S(N)(=O)=O)cc4)nc3N)n1)C(C)(C)CCC2(C)C
Task: Could you tell me which of A and B has the lower inhibition at 1 µM reading? Indicate which entry you chose by stating its label.
Output: B
